Origin of values: patent US20110217237A1

Record form. Attribute: pEC50. Fill in for each entry.
molecular target: T1, human DLL4 extracellular domain (human, UniProt Q9NR61 27-529); experiment: capture ELISA, biotin-huDLL4 ECD
T1 construct: purified recombinant ECD; biotin-labelled or 6xHis-tagged depending on the assay; also called huDLL4 ECD; hu DLL4 ECD
T1 sequence (Q9NR61 27-529 limits assumed): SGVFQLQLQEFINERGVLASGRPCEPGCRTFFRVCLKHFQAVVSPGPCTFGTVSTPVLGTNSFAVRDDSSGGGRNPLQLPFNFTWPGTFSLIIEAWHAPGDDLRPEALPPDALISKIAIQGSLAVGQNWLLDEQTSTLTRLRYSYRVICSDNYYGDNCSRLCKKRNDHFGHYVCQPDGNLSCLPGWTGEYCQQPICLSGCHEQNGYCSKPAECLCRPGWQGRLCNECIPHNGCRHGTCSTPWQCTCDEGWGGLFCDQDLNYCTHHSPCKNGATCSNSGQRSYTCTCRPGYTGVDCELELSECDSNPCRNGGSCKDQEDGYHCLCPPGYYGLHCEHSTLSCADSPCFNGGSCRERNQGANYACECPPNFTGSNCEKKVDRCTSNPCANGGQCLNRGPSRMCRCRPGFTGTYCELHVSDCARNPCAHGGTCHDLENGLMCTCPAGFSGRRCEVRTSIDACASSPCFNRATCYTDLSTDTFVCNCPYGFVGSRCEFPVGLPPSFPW
One number for each entry, as −log10 of the molar value.

Use the examples below as a reference point.
h38H12.13 (antibody, V domains shown, humanized IgG; also called VH.2a/VL.1 38H12) VH: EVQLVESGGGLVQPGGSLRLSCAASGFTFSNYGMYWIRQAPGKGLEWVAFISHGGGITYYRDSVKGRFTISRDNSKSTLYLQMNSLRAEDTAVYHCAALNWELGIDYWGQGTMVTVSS VL: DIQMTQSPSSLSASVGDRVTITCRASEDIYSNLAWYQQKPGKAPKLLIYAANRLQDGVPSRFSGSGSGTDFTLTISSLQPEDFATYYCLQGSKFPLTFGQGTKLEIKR ... 9.81
h38H12.5 (antibody, V domains shown, humanized IgG; also called VH.1a/VL.1 38H12) VH: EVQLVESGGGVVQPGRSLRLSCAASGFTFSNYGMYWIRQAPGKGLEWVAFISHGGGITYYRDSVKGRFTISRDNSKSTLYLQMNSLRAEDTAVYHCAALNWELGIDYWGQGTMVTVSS VL: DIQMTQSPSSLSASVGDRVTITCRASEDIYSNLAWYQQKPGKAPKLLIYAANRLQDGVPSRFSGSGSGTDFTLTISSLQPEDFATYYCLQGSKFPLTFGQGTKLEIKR ... 9.70

query: Recall and state the measured pEC50 for h38H12.12 (antibody, V domains shown, humanized IgG; also called VH.1b/VL.2a 38H12) VH: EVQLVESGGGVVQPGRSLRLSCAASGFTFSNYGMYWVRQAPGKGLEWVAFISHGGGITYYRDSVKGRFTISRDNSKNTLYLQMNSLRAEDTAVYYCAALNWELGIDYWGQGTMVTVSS VL: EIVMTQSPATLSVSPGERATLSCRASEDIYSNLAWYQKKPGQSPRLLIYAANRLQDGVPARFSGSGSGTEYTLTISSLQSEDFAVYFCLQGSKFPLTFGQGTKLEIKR .
result: 9.78
